- assay: Determination of solubility in phosphate buffer (UV absorbance)
- Type: physicochemical
- particulars: 0.10 m phosphate buffer, aqueous buffer; phosphate buffer (0.10M), agitated 20 h; read-out: solubility in H2 O
assay.readout: solubility at 20 h (mg/mL)
The reply should contain only the number, in mg/mL.

The molecule identified as "Cc1cn([C@H]2C[C@H](N=[N+]=[N-])[C@@H](CP(=O)(O)O)O2)c(=O)[nH]c1=O" registered its solubility at 20 h at 11.1

----------
Listed molecules paired with reported IC50
- Tested on: HIV-1(III B)
- assay: Inhibition of cytopathogenicity of HIV-1(IIIB) in MT4 cells, cell-protection assay
- Format: cell-based, human immunodeficiency virus type 1 (HIV-1)
- particulars: Human immunodeficiency virus 1; cytopathogenicity in MT4 cells; average of triplicate determinations; read-out: IC50 HIV-1(III B)
The reply should contain only the number, in µg/mL.

{"columns": ["molecule", "tgt", "unit.abbrev", "observed.result"],
 "data": [
  ["Cc1cn([C@H]2C[C@H](F)[C@@H](CP(=O)(O)O)O2)c(=O)[nH]c1=O", "HIV-1(III B)", "µg/mL", 11.8],
  ["COC(=O)[C@H](C)NP(=O)(C[C@H]1O[C@@H](n2cc(C)c(=O)[nH]c2=O)C[C@@H]1F)O[C@H]1C[C@H](n2cc(C)c(=O)[nH]c2=O)O[C@@H]1CO (stereo partly shown)", "HIV-1(III B)", "µg/mL", 0.34],
  ["COC(=O)[C@H](C)NP(=O)(C[C@H]1O[C@@H](n2cc(C)c(=O)[nH]c2=O)C[C@@H]1N=[N+]=[N-])O[C@H]1C[C@H](n2cc(C)c(=O)[nH]c2=O)O[C@@H]1CO (stereo partly shown)", "HIV-1(III B)", "µg/mL", 0.61]
]}

The molecule identified as "Cc1cn([C@H]2C[C@H](OP(=O)(O)C[C@H]3O[C@@H](n4cc(C)c(=O)[nH]c4=O)C[C@@H]3F)[C@@H](CO)O2)c(=O)[nH]c1=O" registered its IC50 at 3.04

The molecule identified as COC(=O)[C@@H](C)NP(=O)(C[C@H]1O[C@@H](n2cc(C)c(=O)[nH]c2=O)C[C@@H]1N=[N+]=[N-])O[C@H]1C[C@H](n2cc(C)c(=O)[nH]c2=O)O[C@@H]1CO (stereo partly shown) registered its IC50 at 0.76

The molecule identified as "Cc1cn([C@H]2C[C@H](N=[N+]=[N-])[C@@H](CP(=O)(O)O[C@H]3C[C@H](n4cc(C)c(=O)[nH]c4=O)O[C@@H]3CO)O2)c(=O)[nH]c1=O" registered its IC50 at 1.92

The molecule identified as "Cc1cn([C@H]2C[C@H](N=[N+]=[N-])[C@@H](CP(=O)(O)O)O2)c(=O)[nH]c1=O" registered its IC50 at 7.68

The molecule identified as "Cc1cn([C@H]2CC[C@@H](CP(=O)(O)O)O2)c(=O)[nH]c1=O" registered its IC50 at 23.5

The molecule identified as COC(=O)[C@@H](C)NP(=O)(C[C@H]1O[C@@H](n2cc(C)c(=O)[nH]c2=O)C[C@@H]1F)O[C@H]1C[C@H](n2cc(C)c(=O)[nH]c2=O)O[C@@H]1CO (stereo partly shown) registered its IC50 at 0.5
